PROTOCOL_DETAILS: yeast display, Sf9 membrane polyspecificity reagent, FACS + sequencing; frameworks hold sequencing errors
OBSERVED_PROPERTY: polyreactivity (PSR sort gate)

Below: 4 sequences and their reported polyreactivity (PSR sort gate).
Name the reported polyreactivity (PSR sort gate) value associated with the sequence "QVQLVESGGGLVQAGGSLRLSCAASGFTFGSNAMGWYRPAAGKERELVASITTRGGSTYYADSVKGRFTISRDNAKNTVYLQMNSLKPEDTAVYYCAARARYPNWTYYYWGQGTQVTVSS" high polyreactivity

Using the record for "QVQLVESGGGLVQAGGSLRLSCAASGSISSFYAMGWYRQAPGKERELVAGITSGGSTNYADSVKGRFTISRDNAKNTVYLQKNSLKPEDTAVYYCAAVYQGAGTHFDVFVKEFDYWGQGTQVTVSS" , report its polyreactivity (PSR sort gate). low polyreactivity

So what's the measured polyreactivity (PSR sort gate) for this one? "QVQLVESGGGLVQAGGSLRLSCAASGIIFTYYAMGWYRQAPGKERELVASISSSGTSTYYADSVKGRFTISRDYAKNTVYLQMNSLKPEDTAVYYCAADWTGSNGVDYWGQGTQVTVSS" low polyreactivity

Requested read-out: polyreactivity (PSR sort gate). Entry: "QVQLVESGGGVVQAGGSLRISCAASGSTFVRYAMGWYRQAPGKERELVASISSSGSTYYADSVKGRFTISRDYAKNTVNVELNCLNPEDNAVYYCAKQYGGRYGYWGQGSQVTVSS" low polyreactivity

Continue with the next sequence.
Find the recorded polyreactivity (PSR sort gate) belonging to "QVQLVESVGGLVQAGGSLRLSCAASARIFRYYAMGWDRQAPGKERELVAAITWNGGSTYYADSVKGRFTISRDNAKNTVYVQLNSLKPEDTAVYYCAAVSYYTHYRLPYDYWGQGTQVTVSS" and report it. high polyreactivity
